Target: Transient receptor potential cation channel subfamily M member 2 (Homo sapiens)
Test: Inhibition of human TRPM2 expressed in HEK293 cells assessed as reduction in ADPR-induced channel currents treated extracellularly after 60 secs by whole cell patch clamp electrophysiology method
Assay type: cell-based
pIC50: −log10 of the molar value.
quantity-name: pIC50

Cc1cc(Cl)cc2c1NC(c1c[nH]nc1-c1ccccc1)NC2=O (stereo not given) : 5.29
Cc1cc(Cl)cc2c1NC(c1c[nH]nc1-c1cccc3ccccc13)NC2=O (stereo not given) : 5.40
Cc1cc(Br)cc2c1NC(c1c[nH]nc1-c1cccc3ccccc13)NC2=O (stereo not given) : 5.43

A. Cc1cc(Br)cc2c1NC(c1c[nH]nc1-c1ccccc1)NC2=O (stereo not given)
B. CCCCCc1ccc(/C=C/C(=O)Nc2ccccc2C(=O)O)cc1
Between the two listed entries A and B , which has its pIC50 at the higher number? Write down the label of the entry you select. B
(B: 6.49, A: 5.34)

----------
Biological target: Transient receptor potential cation channel subfamily M member 2 (Homo sapiens, UniProt O94759)
Sequence (O94759 whole entry): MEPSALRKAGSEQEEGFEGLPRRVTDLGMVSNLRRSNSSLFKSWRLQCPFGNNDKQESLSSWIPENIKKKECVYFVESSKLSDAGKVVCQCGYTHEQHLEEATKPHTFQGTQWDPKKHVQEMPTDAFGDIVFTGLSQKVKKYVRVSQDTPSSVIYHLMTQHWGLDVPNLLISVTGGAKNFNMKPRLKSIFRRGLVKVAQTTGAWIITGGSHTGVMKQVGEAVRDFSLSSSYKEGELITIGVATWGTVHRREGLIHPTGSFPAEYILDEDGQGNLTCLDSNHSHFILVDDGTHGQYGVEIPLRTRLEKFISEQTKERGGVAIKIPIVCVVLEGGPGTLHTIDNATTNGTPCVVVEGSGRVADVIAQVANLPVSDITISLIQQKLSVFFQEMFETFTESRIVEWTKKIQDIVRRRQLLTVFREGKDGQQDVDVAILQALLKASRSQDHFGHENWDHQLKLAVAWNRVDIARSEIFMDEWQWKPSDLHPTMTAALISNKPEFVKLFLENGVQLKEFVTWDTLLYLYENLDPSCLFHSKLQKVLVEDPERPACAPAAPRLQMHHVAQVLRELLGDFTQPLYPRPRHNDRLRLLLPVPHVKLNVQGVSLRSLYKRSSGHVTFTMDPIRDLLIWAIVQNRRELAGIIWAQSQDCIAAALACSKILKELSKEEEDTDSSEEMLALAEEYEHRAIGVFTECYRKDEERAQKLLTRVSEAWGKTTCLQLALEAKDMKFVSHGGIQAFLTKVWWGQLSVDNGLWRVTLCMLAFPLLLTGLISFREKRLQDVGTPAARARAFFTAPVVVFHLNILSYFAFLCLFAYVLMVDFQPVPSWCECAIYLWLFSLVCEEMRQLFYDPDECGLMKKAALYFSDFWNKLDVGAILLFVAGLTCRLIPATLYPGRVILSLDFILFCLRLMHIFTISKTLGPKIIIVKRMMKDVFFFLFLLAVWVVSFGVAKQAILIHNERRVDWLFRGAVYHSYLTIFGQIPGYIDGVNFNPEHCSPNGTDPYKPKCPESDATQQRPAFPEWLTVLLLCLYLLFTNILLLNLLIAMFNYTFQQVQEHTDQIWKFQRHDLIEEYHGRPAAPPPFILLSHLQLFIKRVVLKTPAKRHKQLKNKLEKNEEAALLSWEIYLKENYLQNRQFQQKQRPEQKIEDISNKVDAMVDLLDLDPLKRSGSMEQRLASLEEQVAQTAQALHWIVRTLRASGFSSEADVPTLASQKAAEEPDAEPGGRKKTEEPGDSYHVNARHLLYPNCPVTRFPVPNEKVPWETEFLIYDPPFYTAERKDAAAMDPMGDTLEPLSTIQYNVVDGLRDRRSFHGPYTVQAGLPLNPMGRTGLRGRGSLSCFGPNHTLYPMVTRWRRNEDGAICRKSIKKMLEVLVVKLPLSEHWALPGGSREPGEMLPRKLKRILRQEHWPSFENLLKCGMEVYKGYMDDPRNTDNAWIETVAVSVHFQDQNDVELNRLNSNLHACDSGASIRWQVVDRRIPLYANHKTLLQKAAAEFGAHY
Assay: Inhibition of human TRPM2 expressed in HEK293 cells assessed as reduction in ADPR-induced channel currents at 30 uM treated extracellularly after 60 secs by whole cell patch clamp electrophysiology method relative to control
Format: cell-based
quantity-name: inhibition

// solved cases for inhibition follow
Cc1cc(Cl)cc2c1NC(c1c[nH]nc1-c1cccc3ccccc13)NC2=O (configuration not stated) : 90.2%
O=C1NC(c2c[nH]nc2-c2ccccc2)Nc2c(F)cc(F)cc21 (configuration not stated) : 37.2%
Cc1cc(Cl)cc2c1NC(c1c[nH]nc1-c1ccc(Cl)cc1)NC2=O (configuration not stated) : 10.3%
Cc1cc(Br)cc2c1NC(c1c[nH]nc1-c1ccccc1)NC2=O (configuration not stated) : 92.8%
O=C1NC(c2c[nH]nc2-c2ccccc2)Nc2ccccc21 (configuration not stated) : 55 to 68.1%
Cc1cc(Cl)cc2c1NC(c1c[nH]nc1-c1ccccc1Br)NC2=O (configuration not stated) : 17.9%
CCCCCc1ccc(/C=C/C(=O)Nc2ccccc2C(=O)O)cc1 : 89.1%
Cc1cc(F)cc2c1NC(c1c[nH]nc1-c1ccccc1)NC2=O (configuration not stated) : 42.7%
O=C1NC(c2c[nH]nc2-c2ccccc2)Nc2ccc(Cl)cc21 (configuration not stated) : 27.9%
Cc1cc(Cl)cc2c1NC(c1cn[nH]c1)NC2=O (configuration not stated) : 16.9%

Now for another entry.
Suppose we examine the molecule Cc1cc(C)c2c(c1)C(=O)NC(c1c[nH]nc1-c1ccccc1)N2 (configuration not stated) ; what inhibition value has been reported? 60.5%

----------
Target: Transient receptor potential cation channel subfamily M member 2 (Homo sapiens, UniProt O94759)
Experiment: Inhibition of human TRPM2 expressed in HEK293 cells assessed as reduction in ADPR-induced channel currents at 3 uM treated extracellularly after 60 secs by whole cell patch clamp electrophysiology method relative to control
Format: cell-based
quantity-name: inhibition (%)

Consider the following illustrative entries.
Cc1cc(Br)cc2c1NC(c1c[nH]nc1-c1ccc([N+](=O)[O-])cc1)NC2=O (stereo not given) : 42.1
Cc1cc(Cl)cc2c1NC(c1c[nH]nc1-c1ccc([N+](=O)[O-])cc1)NC2=O (stereo not given) : 43.4
O=C1NC(c2c[nH]nc2-c2ccc([N+](=O)[O-])cc2)Nc2c(I)cc(Cl)cc21 (stereo not given) : 34.9
O=C1NC(c2c[nH]nc2-c2ccccc2)Nc2c(I)cc(Cl)cc21 (stereo not given) : 39.6
Cc1cc(Br)cc2c1NC(c1c[nH]nc1-c1ccccc1)NC2=O (stereo not given) : 50.1

a. CCCCCc1ccc(/C=C/C(=O)Nc2ccccc2C(=O)O)cc1
b. Cc1cc(Br)cc2c1NC(c1c[nH]nc1-c1cccc3ccccc13)NC2=O (stereo not given)
c. O=C1NC(c2c[nH]nc2-c2cccc3ccccc23)Nc2c(I)cc(Cl)cc21 (stereo not given)
Put the entries in order of inhibition, starting with the largest number. Form entry: ranked labels (order as requested). a, b, c

----------
Target: Transient receptor potential cation channel subfamily M member 8 (Homo sapiens)
Assay: Inhibition of human TRPM8 expressed in HEK293 cells assessed as reduction in H2O2-induced intracellular calcium flux after 30 mins by Fluo4-AM dye based fluorescence assay
Sequence (Q7Z2W7 whole entry): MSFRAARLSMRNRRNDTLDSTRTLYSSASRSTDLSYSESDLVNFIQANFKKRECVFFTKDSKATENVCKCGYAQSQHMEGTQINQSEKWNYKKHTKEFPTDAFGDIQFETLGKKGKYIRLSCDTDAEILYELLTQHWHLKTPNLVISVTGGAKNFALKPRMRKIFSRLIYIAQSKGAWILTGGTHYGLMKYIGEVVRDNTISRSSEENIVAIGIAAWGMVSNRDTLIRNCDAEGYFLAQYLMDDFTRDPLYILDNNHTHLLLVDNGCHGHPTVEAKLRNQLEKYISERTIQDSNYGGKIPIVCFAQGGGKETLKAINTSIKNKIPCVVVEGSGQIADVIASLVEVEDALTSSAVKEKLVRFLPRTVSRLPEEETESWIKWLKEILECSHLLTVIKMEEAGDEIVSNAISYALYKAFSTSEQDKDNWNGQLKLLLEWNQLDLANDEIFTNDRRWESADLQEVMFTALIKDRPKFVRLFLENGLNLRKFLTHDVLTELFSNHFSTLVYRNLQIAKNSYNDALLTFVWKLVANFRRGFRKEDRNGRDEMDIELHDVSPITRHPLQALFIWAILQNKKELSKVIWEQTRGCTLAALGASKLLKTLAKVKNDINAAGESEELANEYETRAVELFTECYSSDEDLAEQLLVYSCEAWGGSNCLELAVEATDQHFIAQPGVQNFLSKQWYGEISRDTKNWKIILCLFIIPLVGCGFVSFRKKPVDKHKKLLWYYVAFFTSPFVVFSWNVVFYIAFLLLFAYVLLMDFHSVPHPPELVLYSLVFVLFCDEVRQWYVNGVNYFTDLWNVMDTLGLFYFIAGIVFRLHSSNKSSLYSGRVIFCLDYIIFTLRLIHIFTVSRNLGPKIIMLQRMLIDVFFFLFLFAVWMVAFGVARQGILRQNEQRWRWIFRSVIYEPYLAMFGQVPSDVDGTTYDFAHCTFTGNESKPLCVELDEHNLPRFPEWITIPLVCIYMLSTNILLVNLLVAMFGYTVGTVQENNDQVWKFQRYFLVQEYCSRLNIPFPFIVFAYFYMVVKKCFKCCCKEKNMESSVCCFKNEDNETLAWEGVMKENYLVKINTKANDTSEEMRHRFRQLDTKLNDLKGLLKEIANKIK
quantity-name: pIC50
Field pIC50 (float): negative decimal logarithm of the concentration in molar.

State the recorded pIC50 for this entry: CCCCCc1ccc(/C=C/C(=O)Nc2ccccc2C(=O)O)cc1 5.41

----------
Molecular target: Transient receptor potential cation channel subfamily M member 8 (Homo sapiens)
Assay: Inhibition of human TRPM8 expressed in HEK293 cells assessed as reduction in menthol-induced channel currents at 30 uM treated intracellularly via pipette after 60 secs by whole cell patch clamp electrophysiology method
Assay type: cell-based
Sequence (Q7Z2W7 whole entry, looked up): as the sequence (Q7Z2W7 whole entry) above
Calls of active or inactive are those of the source. The calls are words filed in the database; no cut-off is given here.
Your response should consist of one outcome taken from active, inactive

These solved cases illustrate the format of a correct answer.
Cc1cc(Cl)cc2c1NC(c1c[nH]nc1-c1ccccc1)NC2=O (centres undefined) : active
Cc1cc(Cl)cc2c1NC(c1c[nH]nc1-c1cccc3ccccc13)NC2=O (centres undefined) : inactive
Cc1cc(Br)cc2c1NC(c1c[nH]nc1-c1ccccc1)NC2=O (centres undefined) : active

Turning now to a further compound:
Tell me the recorded outcome of this test for Cc1cc(Br)cc2c1NC(c1c[nH]nc1-c1cccc3ccccc13)NC2=O (centres undefined) . inactive

----------
Target: Transient receptor potential cation channel subfamily M member 8 (Homo sapiens, UniProt Q7Z2W7)
Assay: Inhibition of human TRPM8 expressed in HEK293 cells assessed as reduction in menthol-induced channel currents at 30 uM treated extracellularly after 60 secs by whole cell patch clamp electrophysiology method relative to control
Type: cell-based
Active and inactive are the calls of the source. The rule behind the calls is not given here.
quantity-name: inhibition

Cc1cc(Br)cc2c1NC(c1c[nH]nc1-c1ccccc1)NC2=O (centres undefined) : 19%
Cc1cc(Cl)cc2c1NC(c1c[nH]nc1-c1ccccc1)NC2=O (centres undefined) : 27%
Cc1cc(Br)cc2c1NC(c1c[nH]nc1-c1cccc3ccccc13)NC2=O (centres undefined) : inactive
Cc1cc(Cl)cc2c1NC(c1c[nH]nc1-c1cccc3ccccc13)NC2=O (centres undefined) : inactive

----------
# Lookup of reported inhibition keyed by entry
Molecular target: Transient receptor potential cation channel subfamily M member 2 (Homo sapiens, UniProt O94759)
Assay: Inhibition of human TRPM2 expressed in HEK293 cells assessed as reduction in ADPR-induced channel currents at 30 uM treated extracellularly after 60 secs by whole cell patch clamp electrophysiology method relative to control
Type: cell-based

Cc1cc(Cl)cc2c1NC(c1c[nH]nc1-c1ccc([N+](=O)[O-])cc1)NC2=O (stereo unspecified) : 90.4%
Cc1cccc2c1NC(c1c[nH]nc1-c1ccccc1)NC2=O (stereo unspecified) : 39.2%

# inhibition lookup, item Cc1cccc2c(=O)[nH]c(-c3c[nH]nc3-c3ccccc3)nc12 21.2%

Record: Cc1cc(Cl)cc2c1NC(c1c[nH]nc1-c1ccc(Br)cc1)NC2=O (stereo unspecified) 51%

What do you have for Cc1cc(Cl)cc2c1NC(c1c[nH]nc1-c1ccc(-c3ccccc3)cc1)NC2=O (stereo unspecified) ? 17%

----------
Molecular target: UniProt O94759
Assay: Inhibition of human TRPM2 expressed in HEK293 cells assessed as reduction in ADPR-induced channel currents at 30 uM treated extracellularly after 60 secs by whole cell patch clamp electrophysiology method relative to control
Format: cell-based
Reported inhibition by item:

# count of solved cases: 4
O=c1[nH]c(-c2c[nH]nc2-c2ccccc2)nc2ccccc12 : 28.7%
O=C1NC(c2c[nH]nc2-c2ccccc2)Nc2ccc(F)cc21 (stereo unspecified) : 34.8%
O=C1NC(c2c[nH]nc2-c2ccccc2)Nc2c(I)cc(Cl)cc21 (stereo unspecified) : 89.4%
Cc1cc(Cl)cc2c1NC(c1c[nH]nc1-c1ccccc1)NC2=O (stereo unspecified) : 90.2%

API: the following record is the query input.
Which inhibition is reported for this compound? COc1cc(Br)cc2c1NC(c1c[nH]nc1-c1ccccc1)NC2=O (stereo unspecified) 50.4%
